- experiment.summary: Cell Viability - LYMP2-025 (AID 976);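 note: cells exposed to compound for 24 h at 37 °C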
- condition.notes: LYMP2-025 lymphoblastoid cell viability; series mostly up to 92.2 µM
Records with an inconclusive call do not appear. The source made the active and inactive calls. Calls come from the whole dose curve; as a rule, active = well fitted cell-killing curve with a large enough effect; inconclusive = small, poorly fitted or top-dose-only effect; inactive = flat fitted curve, though single readings scatter.
Result category, one only: active, inactive

Solved entries:
smiles_data=CC(=O)Nc1ccc(O)cc1 discrete_label=inactive
smiles_data=Cc1ccc(C)c(OCCCC(C)(C)C(=O)O)c1 discrete_label=inactive
smiles_data=CCCc1cc(=O)[nH]c(=S)[nH]1 discrete_label=inactive
smiles_data=CS(=O)(=O)OCCCCOS(C)(=O)=O discrete_label=inactive

q: // return assay outcome for "CN(C)c1ccc2nc3ccc(=[N+](C)C)cc-3sc2c1"
a: active

* * *

- experiment.summary: Quantitative High-Throughput drug screen in 47 multiple myeloma cell lines against the NCATS MIPE library collection: LP1_DSMZ cell viability assay (AID 1918982); note: nearly all actives have a fitted effect of over 35% in size
- condition.notes: LP1 myeloma viability, CellTiter-Glo ATP luminescence, 48 h; series mostly up to 45.8 µM
Records with an inconclusive call do not appear. Calls of active or inactive are those of the source. Calls follow the shape of the dose curve; as a rule, active = well fitted cell-killing curve with a large enough effect; inconclusive = small, poorly fitted or top-dose-only effect, or effect the other way; inactive = no such curve, though single readings can be large or run the other way.
Bench note: report the call from Y for active, N for inactive

Worked cases, answers included:
compound=COc1cc(OC)c(C(=O)CCCN2CCCC2)c(OC)c1 discrete_label=N
compound=Nc1ncn([C@H]2C[C@H](O)[C@@H](CO)O2)c(=O)n1 discrete_label=N
compound=O=P(O)(O)C(O)(Cn1ccnc1)P(=O)(O)O discrete_label=N
compound="Cc1ncc([N+](=O)[O-])n1CC(C)O (centres undefined)" discrete_label=N
compound="O=C(NC(Cc1cc(=O)[nH]c2ccccc12)C(=O)O)c1ccc(Cl)cc1 (centres undefined)" discrete_label=N

q: Can you look up the reported call for "COc1ccc2cc([C@H](C)C(=O)O)ccc2c1" for me?
a: N

q: What was the test verdict on COC(=O)C1=C(C)NC(C)=C(C(=O)OC(C)C)C1c1cccc2nonc12 (centres undefined) ?
a: N

q: # fetch the recorded call for "Cc1ccc(C(=O)c2cc(O)c(O)c([N+](=O)[O-])c2)cc1" here
a: N

* * *

- experiment.summary: Cell Viability - LYMP1-002 - Assay at 16 hr (AID 948)
- condition.notes: LYMP1-002 lymphoblastoid cell viability; series mostly up to 92.2 µM
Results filed as inconclusive are left out. Active and inactive are the calls of the source. The call rests on the fitted dose curve; in most records, active means well fitted cell-killing curve with a large enough effect; inconclusive means small, poorly fitted or top-dose-only effect; inactive means flat fitted curve, though single readings scatter. Peptide text beside a SMILES is read from it.
Please answer using one outcome listed in active, inactive

Would you please look over these solved cases?
compound=CC(=O)Nc1ccc(O)cc1 discrete_label=inactive
compound="COC(=O)[C@H](Cc1ccccc1)NC(=O)[C@@H](N)CC(=O)O (H-Asp-Phe-OMe)" discrete_label=inactive
compound=c1ccc2[nH]c(-c3cscn3)nc2c1 discrete_label=inactive
compound=COc1c2occc2cc2ccc(=O)oc12 discrete_label=inactive
compound=Cc1cc(O)c2c(c1)C(=O)c1cc(O)cc(O)c1C2=O discrete_label=inactive
compound=CN(C)c1ccc2nc3ccc(=[N+](C)C)cc-3sc2c1 discrete_label=active

Query compound follows.
q: Please indicate how the test categorized "CCc1nc(N)nc(N)c1-c1ccc(Cl)cc1" .
a: inactive

* * *

- target.system: Furin (Homo sapiens) (UniProt P09958)
- Sequence (P09958 whole entry, looked up): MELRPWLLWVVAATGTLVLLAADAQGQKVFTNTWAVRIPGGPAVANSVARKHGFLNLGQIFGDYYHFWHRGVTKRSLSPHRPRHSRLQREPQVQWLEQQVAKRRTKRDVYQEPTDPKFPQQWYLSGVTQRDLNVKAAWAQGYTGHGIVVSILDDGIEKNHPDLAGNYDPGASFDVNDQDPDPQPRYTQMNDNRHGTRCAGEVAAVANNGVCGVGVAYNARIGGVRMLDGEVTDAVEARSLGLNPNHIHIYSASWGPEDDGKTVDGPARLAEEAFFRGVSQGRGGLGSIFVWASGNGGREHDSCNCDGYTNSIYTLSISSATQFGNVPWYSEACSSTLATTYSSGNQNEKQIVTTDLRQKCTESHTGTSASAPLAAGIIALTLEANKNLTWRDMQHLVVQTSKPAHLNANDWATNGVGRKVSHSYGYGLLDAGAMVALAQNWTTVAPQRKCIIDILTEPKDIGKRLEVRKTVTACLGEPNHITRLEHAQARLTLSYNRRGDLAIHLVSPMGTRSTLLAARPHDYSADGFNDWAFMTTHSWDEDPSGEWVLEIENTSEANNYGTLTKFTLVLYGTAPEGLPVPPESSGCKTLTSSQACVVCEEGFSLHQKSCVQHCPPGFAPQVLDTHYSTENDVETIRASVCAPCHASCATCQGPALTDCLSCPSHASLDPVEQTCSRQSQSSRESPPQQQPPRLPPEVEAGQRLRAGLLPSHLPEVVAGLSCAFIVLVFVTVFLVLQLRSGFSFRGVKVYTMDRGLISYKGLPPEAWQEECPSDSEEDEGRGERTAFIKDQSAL
- experiment.summary: Furin counterscreen qHTS for Zika virus inhibitors (AID 1347149); note: nearly all actives have a fitted effect of over 70% in size
- condition.notes: furin enzymatic counterscreen, fluorogenic substrate; series mostly up to 57.5 µM
- From the text: Avindra Nath, Ph.D., National Institute of Neurological Disorders and Stroke (NINDS), Bethesda, MD Radhakrishnan Padmanabhan, Ph.D., Georgetown University (GU), Washington D.C. Zika Virus causes congenital defects, including microcephaly and is associated with Guillain-Barre syndrome, eningoencephalitis and myelitis in infected adult. […]
Results filed as inconclusive are left out. Calls of active or inactive are those of the source. Calls follow the shape of the dose curve; as a rule, active = well fitted inhibition curve with a large enough effect; inconclusive = small, poorly fitted or top-dose-only effect; inactive = no such curve, though single readings can be large or run the other way.
Outcome (select one): active, inactive

Field: example entries. Status: answers known.
smiles_data=Cc1nc(-c2ccc(OCC(C)C)c(C#N)c2)sc1C(=O)O discrete_label=active
smiles_data=N[C@@H](Cc1cc(I)c(Oc2cc(I)c(O)c(I)c2)c(I)c1)C(=O)O discrete_label=inactive
smiles_data=O=C(O)c1cn(-c2ccc(F)cc2)c2cc(N3CCNCC3)c(F)cc2c1=O discrete_label=active

// switching to the query compound
q: Please share the test call associated with "O=c1c(O)c(-c2cc(O)c(O)c(O)c2)oc2cc(O)cc(O)c12" .
a: inactive

The measurements presented in this section are drawn from PubChem BioAssay (NCATS).
